- Test system: TK-10
- Procedure text: NCI tumour cell line growth inhibition, 48 h
Activity calls are given as the source filed them. Cut-off read from the data, not from the text of the source: active = GI50 up to about 1.1 µM and inactive = higher.
Attribute measured: GI50

Given the compound COc1ccc([C@@H]2CC(=O)NCCCCNCCCN2)cc1 , what is its reported GI50?
> 100 µM (inactive)

Request: C#CC(O)/C=C/CCCCCCC#CC/C=C\CC#CCCCCCC/C=C/C(O)C#C (stereo unspecified)
2.99 µM (inactive)

Request: CSC(=S)NN=C1CCCCC1
24.9 µM (inactive)

Request: O=C(n1c(=O)n(-c2ccc([N+](=O)[O-])cc2)c(=O)n1C(=O)C(Cl)(Cl)Cl)C(Cl)(Cl)Cl
> 100 µM (inactive)

Request: COc1ccc(NC(=S)N/N=C(\C)c2nc3cccnc3[nH]2)cc1
0.637 µM (active)

Request: COc1ccc(CNc2cc(OC)cc(OC)c2)cc1
> 100 µM (inactive)

Request: Cc1sc(NC=C2C(=O)CC(C)(C)CC2=O)nc1-c1ccccc1
> 100 µM (inactive)

Request: C/C(=N\O)C(CN1CCCCC1)C(c1ccccc1)c1c(O)c2ccccc2oc1=O (stereo unspecified)
> 100 µM (inactive)

Request: N#CC(=N)c1ncn(-c2ccc(N)cc2)c1N
> 100 µM (inactive)

Request: O=C(CC(C(=O)c1ccsc1)c1cccs1)c1ccsc1 (stereo unspecified)
> 100 µM (inactive)

Request: COc1ccccc1NC(=S)N/N=C/c1c(C)n(C)n(-c2ccccc2)c1=O
> 100 µM (inactive)
